- TARGET_SYSTEM: human EphA4 extracellular domain-SEAP-His protein (human)
- Sequence (chain, as listed by the source limits assumed): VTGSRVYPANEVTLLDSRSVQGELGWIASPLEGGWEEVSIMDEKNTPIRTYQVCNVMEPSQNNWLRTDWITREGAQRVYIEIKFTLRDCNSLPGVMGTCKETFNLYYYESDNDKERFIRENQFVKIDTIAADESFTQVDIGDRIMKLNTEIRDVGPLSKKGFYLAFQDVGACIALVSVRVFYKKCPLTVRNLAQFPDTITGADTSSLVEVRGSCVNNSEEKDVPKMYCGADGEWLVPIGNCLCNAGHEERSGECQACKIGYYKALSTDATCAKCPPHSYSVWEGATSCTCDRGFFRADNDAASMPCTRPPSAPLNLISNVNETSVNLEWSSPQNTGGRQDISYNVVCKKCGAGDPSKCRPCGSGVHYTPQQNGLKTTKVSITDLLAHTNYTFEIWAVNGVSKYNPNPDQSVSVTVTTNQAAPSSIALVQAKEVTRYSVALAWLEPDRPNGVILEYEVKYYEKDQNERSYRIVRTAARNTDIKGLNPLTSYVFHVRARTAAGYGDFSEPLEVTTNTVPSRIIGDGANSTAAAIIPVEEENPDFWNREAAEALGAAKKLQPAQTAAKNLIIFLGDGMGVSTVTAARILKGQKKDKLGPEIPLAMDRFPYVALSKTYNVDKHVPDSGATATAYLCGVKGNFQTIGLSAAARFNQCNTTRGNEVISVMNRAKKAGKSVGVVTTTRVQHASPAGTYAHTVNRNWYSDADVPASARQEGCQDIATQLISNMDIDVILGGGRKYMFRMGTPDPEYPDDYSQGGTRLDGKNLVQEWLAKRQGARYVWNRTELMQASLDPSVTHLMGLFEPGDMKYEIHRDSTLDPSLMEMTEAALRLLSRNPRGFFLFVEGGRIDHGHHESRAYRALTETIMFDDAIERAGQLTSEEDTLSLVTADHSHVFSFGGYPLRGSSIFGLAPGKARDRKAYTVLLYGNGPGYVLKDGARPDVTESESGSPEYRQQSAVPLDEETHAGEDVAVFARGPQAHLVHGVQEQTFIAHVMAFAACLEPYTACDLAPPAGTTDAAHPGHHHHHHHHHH
- EXPERIMENT_NOTES: ELISA
Form field: absorbance (one value per entry).

BINDER	absorbance
KPEP11_13 (antibody, V domains shown, Rabbit IgG; also called anti-human EphA4 rabbit monoclonal antibody KPEP11_13) VH: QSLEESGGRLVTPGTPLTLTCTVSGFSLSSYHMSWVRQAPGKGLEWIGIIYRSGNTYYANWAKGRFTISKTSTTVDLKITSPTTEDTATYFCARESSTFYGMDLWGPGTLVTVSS VL: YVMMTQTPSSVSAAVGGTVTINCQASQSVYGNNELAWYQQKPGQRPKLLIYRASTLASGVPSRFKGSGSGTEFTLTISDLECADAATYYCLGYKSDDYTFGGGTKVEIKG	1.18
KPEP11_01 (antibody, V domains shown, also called anti-human EphA4 rabbit monoclonal antibody KPEP11_01) VH: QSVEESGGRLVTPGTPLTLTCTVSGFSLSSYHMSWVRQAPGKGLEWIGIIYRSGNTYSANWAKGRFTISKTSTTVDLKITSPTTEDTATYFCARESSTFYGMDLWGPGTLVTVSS VL: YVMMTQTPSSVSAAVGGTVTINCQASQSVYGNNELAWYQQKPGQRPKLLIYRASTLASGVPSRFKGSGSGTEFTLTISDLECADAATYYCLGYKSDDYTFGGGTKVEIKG	1.21
KPEP11_07 (antibody, V domains shown, Rabbit IgG; also called anti-human EphA4 rabbit monoclonal antibody KPEP11_07) VH: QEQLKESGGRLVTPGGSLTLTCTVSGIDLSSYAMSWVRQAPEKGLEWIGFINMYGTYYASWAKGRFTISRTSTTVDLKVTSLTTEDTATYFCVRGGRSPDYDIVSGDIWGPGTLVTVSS VL: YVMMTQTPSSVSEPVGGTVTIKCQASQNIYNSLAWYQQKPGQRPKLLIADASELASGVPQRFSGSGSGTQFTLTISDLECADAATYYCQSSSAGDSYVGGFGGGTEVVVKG	1.22
